Target: PYR1 (Arabidopsis thaliana, UniProt O49686)
Sequence (O49686 whole entry): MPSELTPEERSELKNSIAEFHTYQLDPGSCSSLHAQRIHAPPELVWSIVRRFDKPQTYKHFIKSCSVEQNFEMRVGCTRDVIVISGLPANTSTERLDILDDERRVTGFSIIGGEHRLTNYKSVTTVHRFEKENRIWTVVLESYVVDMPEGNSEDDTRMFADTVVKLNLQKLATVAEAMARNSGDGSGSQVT
Sequence (Q9CAJ0 23-511 partner): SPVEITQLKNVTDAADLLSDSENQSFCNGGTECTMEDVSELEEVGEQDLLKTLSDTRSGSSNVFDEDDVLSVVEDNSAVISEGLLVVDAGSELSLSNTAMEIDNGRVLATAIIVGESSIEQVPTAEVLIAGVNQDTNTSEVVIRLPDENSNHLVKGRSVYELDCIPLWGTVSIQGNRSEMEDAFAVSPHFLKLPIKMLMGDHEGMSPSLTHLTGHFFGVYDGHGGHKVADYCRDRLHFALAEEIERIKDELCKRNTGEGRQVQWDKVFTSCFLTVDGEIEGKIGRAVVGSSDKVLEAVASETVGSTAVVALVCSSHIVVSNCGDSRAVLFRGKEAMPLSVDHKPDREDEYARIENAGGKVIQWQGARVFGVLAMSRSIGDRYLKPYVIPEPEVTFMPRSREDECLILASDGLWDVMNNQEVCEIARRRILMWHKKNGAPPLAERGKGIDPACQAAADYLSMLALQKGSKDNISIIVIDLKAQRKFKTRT
Test: PP2C inhibition assay, recombinant PYR1 receptor
Type: biochemical
Settings: recombinant receptor 200 nM, PP2C 100 nM, 4-nitrophenyl phosphate substrate, absorbance 405 nm; read-out: IC50 PYR1
molecules and their reported IC50
Provide only the numeric value, understood in nM.

Guide cases for IC50, answers given:
- molecule: "Cc1ccc(CS(=O)(=O)Nc2ccc(C#N)c(C3CC3)c2)cc1 [Ligand Q27]"
  value_type: "IC50"
  measured_number: 87
- molecule: "COc1cc(NS(=O)(=O)Cc2ccc(C)cc2)ccc1C#N [Ligand Q20]"
  value_type: "IC50"
  measured_number: 130
- molecule: "CCCc1cc(NS(=O)(=O)Cc2ccc(C)cc2)cc(C)c1C#N [Ligand Q32]"
  value_type: "IC50"
  measured_number: 220

Report IC50 for CCOc1cc(NS(=O)(=O)Cc2ccc(C)cc2)ccc1C#N [Ligand Q26] please.
112

Report IC50 for CCc1cc(NS(=O)(=O)Cc2ccc(C)cc2)ccc1C#N [Ligand Q29] please.
48

Report IC50 for Cc1ccc(CS(=O)(=O)Nc2cc(C)c(C#N)c(C3CC3)c2)cc1 [Ligand Q28] please.
210

Report IC50 for Cc1ccc(CS(=O)(=O)Nc2cc(C)c(C#N)c(Br)c2)cc1 [Ligand Q25] please.
355

Report IC50 for Cc1ccc(CS(=O)(=O)Nc2ccc(C#N)c(C)c2)cc1 [Ligand Q1] please.
246

Report IC50 for Cc1cc(NS(=O)(=O)Cc2ccc(C(F)(F)F)cc2)ccc1C#N [Ligand Q13] please.
1100

Report IC50 for Cc1cc(NS(=O)(=O)Cc2ccc(Cl)cc2)cc(C)c1C#N [Ligand Q22] please.
197

Report IC50 for Cc1ccc(CS(=O)(=O)Nc2ccc(C#N)c(Br)c2)cc1 [Ligand Q3] please.
2500

Report IC50 for Cc1cc(NS(=O)(=O)Cc2ccc(C3CC3)cc2)cc(C)c1C#N [Ligand Q23] please.
203

Report IC50 for Cc1ccc(CS(=O)(=O)Nc2cc(C)c(C#N)c(C)c2)cc1 [Ligand Q15] please.
98

Report IC50 for CCc1cc(NS(=O)(=O)Cc2ccc(C)cc2)cc(C)c1C#N [Ligand Q30] please.
72

Report IC50 for CCCc1cc(NS(=O)(=O)Cc2ccc(C)cc2)ccc1C#N [Ligand Q31] please.
100

* * *

Biological target: PYL2 (Arabidopsis thaliana)
Experiment: PP2C inhibition assay, recombinant PYL2 receptor
Assay type: biochemical
Conditions: recombinant receptor 200 nM, PP2C 100 nM, 4-nitrophenyl phosphate substrate, absorbance 405 nm; read-out: IC50 PYL2
compounds and their reported pIC50
# pIC50: negative log10 of molar concentration; output just the value

Guide cases for pIC50, answers given:
- compound: "COc1cc(NS(=O)(=O)Cc2ccc(C)cc2)ccc1C#N [Ligand Q20]"
  measured_number: 4.93
- compound: "Cc1cc(NS(=O)(=O)Cc2ccc(Cl)cc2)cc(C)c1C#N [Ligand Q22]"
  measured_number: 5.25

Report pIC50 for Cc1ccc(CS(=O)(=O)Nc2cc(C)c(C#N)c(C)c2)cc1 [Ligand Q15] please.
5.59

* * *

Target: PYR1 (Arabidopsis thaliana)
Assay: PP2C inhibition assay, recombinant PYR1 receptor
Assay type: biochemical
value_type: pIC50
# pIC50: negative log10 of molar concentration; output just the value

Report pIC50 for Cc1ccc(CS(=O)(=O)Nc2ccc(C#N)c(C(F)(F)F)c2)cc1 [Ligand Q4] please.
6.59

* * *

Target: PYR1^I110V mutant (Arabidopsis thaliana, UniProt O49686, I110V)
Sequence (O49686 whole entry I110V): as the sequence (O49686 whole entry) above, with I110V counted along it
Sequence (Q9CAJ0 23-511, further chain): as the sequence (Q9CAJ0 23-511 partner) above
Test: Phosphatase inhibition assay with PYR1 I110V mutant
Conditions: recombinant mutant receptor, p-nitrophenol phosphate substrate
value_type: pIC50
# pIC50: negative log10 of molar concentration; output just the value

Checklist item: pIC50 tested on PYR1^I110V mutant (Arabidopsis thaliana, UniProt O49686, I110V), entry Cc1ccc(CS(=O)(=O)Nc2ccc(C#N)c(C3CC3)c2)cc1 , value?
6.10

* * *

compounds and their reported pIC50
Target: PYL2 (Arabidopsis thaliana, UniProt O80992)
Sequence (O80992 whole entry): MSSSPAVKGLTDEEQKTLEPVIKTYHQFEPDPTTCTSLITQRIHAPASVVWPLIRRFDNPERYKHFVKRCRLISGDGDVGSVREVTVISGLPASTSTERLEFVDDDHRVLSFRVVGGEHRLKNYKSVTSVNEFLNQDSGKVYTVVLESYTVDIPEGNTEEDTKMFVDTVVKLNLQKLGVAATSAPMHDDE
Sequence (Q9CAJ0 23-511 partner): as the sequence (Q9CAJ0 23-511 partner) above
Assay: PP2C inhibition assay, recombinant PYL2 receptor
Type: biochemical
# pIC50: negative log10 of molar concentration; output just the value

- compound: "Cc1ccc(CS(=O)(=O)Nc2ccc(C#N)c(C(F)(F)F)c2)cc1"
  target_system: "PYL2 (Arabidopsis thaliana, UniProt O80992)"
  pIC50: 5.02
- compound: "CC1=CC(=O)CC(C)(C)[C@@]1(O)/C=C/C(C)=C\\C(=O)O [ABA, Abscisic acid, reference compound]"
  target_system: "PYL2 (Arabidopsis thaliana, UniProt O80992)"
  pIC50: 7.41
- compound: "Cc1cc(NS(=O)(=O)Cc2ccc(Br)cc2F)cc(C)c1C#N"
  target_system: "PYL2 (Arabidopsis thaliana, UniProt O80992)"
  pIC50: 4.93

Proceeding to the next compound to report its pIC50.
Report pIC50 for N#Cc1ccc(NS(=O)(=O)Cc2ccc(Br)cc2)cc1C(F)(F)F please.
4.50

* * *

Target: PYL2 (Arabidopsis thaliana, UniProt O80992)
Experiment: PP2C inhibition assay, recombinant PYL2 receptor
Format: biochemical
Details: recombinant receptor 200 nM, PP2C 100 nM, 4-nitrophenyl phosphate substrate, absorbance 405 nm; read-out: IC50 PYL2
value_type: pIC50
# pIC50: negative log10 of molar concentration; output just the value

Guide cases for pIC50, answers given:
- item_smiles: "Cc1ccc(CS(=O)(=O)Nc2cc(C)c(C#N)c(C3CC3)c2)cc1"
  pIC50: 5.78
- item_smiles: "Cc1cc(NS(=O)(=O)Cc2ccc(C3CC3)cc2)cc(C)c1C#N"
  pIC50: 4.70
- item_smiles: "CCCc1cc(NS(=O)(=O)Cc2ccc(C)cc2)ccc1C#N"
  pIC50: 5.54
- item_smiles: "CCc1cc(NS(=O)(=O)Cc2ccc(C)cc2)ccc1C#N"
  pIC50: 5.57
- item_smiles: "CCOc1cc(NS(=O)(=O)Cc2ccc(C)cc2)ccc1C#N"
  pIC50: 5.13
- item_smiles: "Cc1ccc(CS(=O)(=O)Nc2ccc(C#N)c(C3CC3)c2)cc1"
  pIC50: 5.49
- item_smiles: "CCc1cc(NS(=O)(=O)Cc2ccc(C)cc2)cc(C)c1C#N"
  pIC50: 6.01
- item_smiles: "Cc1ccc(CS(=O)(=O)Nc2ccc(C#N)c(C)c2)cc1"
  pIC50: 4.70

Report pIC50 for CCCc1cc(NS(=O)(=O)Cc2ccc(C)cc2)cc(C)c1C#N please.
5.79

Report pIC50 for Cc1ccc(CS(=O)(=O)Nc2cc(C)c(C#N)c(Br)c2)cc1 please.
4.78

* * *

Target: PYR1 (Arabidopsis thaliana, UniProt O49686)
Assay: PP2C inhibition assay, recombinant PYR1 receptor
Assay type: biochemical
Method: Reactions were started by adding 40 μL of a reaction solution containing 25 mM 4-nitrophenyl phosphate in assay buffer, after which absorbance measurements were immediately collected using a 405 nm on Wallac plate reader. Reactions contained 100 nM PP2C and 200 nM PYR/PYL proteins. […] The dose response data was fitted to a log (inhibitor) vs response-(variable slope) model using non-linear regression to infer the IC50 values using Graph Pad Prism 6.0.
value_type: log10 of IC50 (log10 of the value in µM)
Quick note: numbers are log10 of IC50, with µM as the unit.

- compound: "N#Cc1ccc(NS(=O)(=O)Cc2ccc(N)cc2)cc1C(F)(F)F [Ligand Q6]"
  log10 of IC50: 0.53
- compound: "Cc1cc(NS(=O)(=O)Cc2ccc(Br)cc2F)cc(C)c1C#N [Ligand Q24]"
  log10 of IC50: -0.73
- compound: "N#Cc1ccc(NS(=O)(=O)Cc2ccc(Br)cc2)cc1C(F)(F)F [Ligand Q7]"
  log10 of IC50: -0.49
- compound: "N#Cc1ccc(NS(=O)(=O)Cc2ccc([N+](=O)[O-])cc2)cc1C(F)(F)F [Ligand Q5]"
  log10 of IC50: 0.92
- compound: "CC1=CC(=O)CC(C)(C)[C@@]1(O)/C=C/C(C)=C\\C(=O)O [ABA, Abscisic acid, reference compound]"
  log10 of IC50: -0.95
- compound: "Cc1ccc(CS(=O)(=O)Nc2ccc(C#N)c(Cl)c2)cc1 [Ligand Q2]"
  log10 of IC50: 0.59

Proceeding to the next compound to report its log10 of IC50.
Report log10 of IC50 for N#Cc1ccc(NS(=O)(=O)Cc2ccc(C(F)(F)F)cc2)cc1C(F)(F)F [Ligand Q9] please.
0.53
